Would you mind telling me the reported chromatographic logP of each entry?
Test name: HPLC logP
Type: physicochemical
Condition context: Table 1

Field: example entries. Status: answers known.
>>> test_value("CON=C(C1=NOCCO1)c1ccccc1Oc1nccc(OCC(Br)(Br)Br)n1")
3.2
>>> test_value("CCCCCCCCCCCCCCCCOc1ccnc(Oc2ccccc2C(=NOC)C2=NOCCO2)n1")
"> 7.4"
>>> test_value("CCCOc1ccnc(Oc2ccccc2C(=NOC)C2=NOCCO2)n1")
2.5
>>> test_value("CON=C(C1=NOCCO1)c1ccccc1Oc1nccc(NC(C)c2ccccc2)n1 (centres unmarked)")
1.8

We now examine a further compound.
Quick one: chromatographic logP for CON=C(C1=NOCCO1)c1ccccc1Oc1nccc(OCC(F)(F)C(F)F)n1 ?
2.6

meta.source: patent US6262051A
